B1: PTPN9 (parent)
chain: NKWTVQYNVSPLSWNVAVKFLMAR

Variants of: B1
measurement.notes: protein stability index of a GFP-peptide fusion (GPS, HEK-293T) (PSI 1-6); higher = more stable;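 note: lentivirally expressed fusions sorted by FACS into six bins by GFP to DsRed ratio, PSI derived from sequencing read proportions per bin multiplied by bin number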
measurement.parameters: c terminus: a fixed tail appended
readout: protein stability index
Numbers only.

{"columns": ["mutation.string", "quantitative.readout"],
 "data": [
  ["W14Y", 2.01],
  ["Y7D", 1.91],
  ["N15W", 2.27],
  ["Y7Q", 1.75],
  ["K2L", 3.54]
]}

Could you tell me protein stability index for each of these variants? They are listed below.
1. V9G
2. S13K
3. S13E
4. N15T

[3.82, 2.74, 1.69, 2.89]

# batch: return protein stability index for each of the 8 variants below
1. Y7R
2. W14T
3. S13Y
4. A23Y
5. Y7E
6. K19E
7. K2A
8. V16N

[1.14, 1.93, 2.32, 2.98, 2.17, 3.72, 2.25, 1.51]
